test: Metabolic stability in mouse liver microsomes assessed as compound remaining after 60 mins by LC-MS/MS analysis in presence of NADPH; format: ADME; details: liver microsomes, read-out: Stability
parameterMeasured: remaining at 1 h

// lookup remaining at 1 h for O=c1[nH]c(=O)n(Cc2cccc3ccccc23)nc1O
> 99%

====

target: D-amino-acid oxidase (Homo sapiens); assay: Inhibition of recombinant human DAAO assessed as oxidative deamination of D-serine in presence of molecular oxygen and FAD after 20 mins
Sequence (P14920 whole entry): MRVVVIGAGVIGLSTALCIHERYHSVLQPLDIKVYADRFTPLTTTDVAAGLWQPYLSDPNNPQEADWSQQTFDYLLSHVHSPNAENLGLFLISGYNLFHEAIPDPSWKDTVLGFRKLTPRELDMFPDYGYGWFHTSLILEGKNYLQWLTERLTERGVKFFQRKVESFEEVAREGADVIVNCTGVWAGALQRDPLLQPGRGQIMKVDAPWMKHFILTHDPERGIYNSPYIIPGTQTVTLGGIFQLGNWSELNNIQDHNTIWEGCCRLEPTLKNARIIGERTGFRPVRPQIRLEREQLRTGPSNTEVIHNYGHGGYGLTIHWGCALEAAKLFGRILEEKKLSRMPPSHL
pIC50: −log10 of the molar value.
Mark condition met for reported pIC50 of 6 or greater; mark condition not met for anything smaller.

Is reported pIC50 greater than or equal to 6 here: O=c1[nH]nc(SCc2ccccc2)nc1O
condition met

Please do the same for O=c1[nH]nc(SCc2noc3ccccc23)nc1O as well.
condition met

Item: O=c1[nH]nc(SCCc2ccccc2)nc1O
condition not met

Also O=c1[nH]nc(SCc2ccc(I)cc2)nc1O ?
condition met

Would you kindly repeat that for O=c1[nH]nc(SCC2CCCCC2)nc1O ?
condition met
